- Tested on: MDA-MB-435
- measurement.description: NCI tumour cell line growth inhibition, 48 h
For each of the compounds below, state its TGI.

Using the record for Cc1sc2nc3c4ccccc4c(NCCCN(C)C)nn3c(=O)c2c1C , report its TGI.
3.74 µM

Requested read-out: TGI. Entry: O=C1C(c2ccccc2)=[N+]([O-])c2ccccc21
11.2 µM

# input compound: C=C1C(=O)O[C@H]2[C@H]1CC/C(COC(=O)c1cc3cc(Cl)ccc3[nH]1)=C\CC[C@@]1(C)O[C@@H]21 ; wanted: its TGI
2.51 µM

Record request: TGI value, item CC(C)C(CC(=O)OCC(CO)OC(=O)CC(C(C)C)C(C)C)C(C)C (stereo not given)
28.1 µM

So what's the measured TGI for this one? O=C(OCCN=c1c2ccccc2ccc2ccccc12)c1ccccc1
> 100 µM

----------
- Test system: SF-539 CNS
- measurement.description: NCI tumour cell line growth inhibition, 48 h
assay.endpoint: log10 TGI (log10 of the value in µM)
Kindly note that the scale is log10 and the underlying TGI is in µM.

Look up log10 TGI: NC(=S)NNc1c([N+](=O)[O-])cnn(-c2ccccc2)c1=O
1.53

# get_value(readout='log10 TGI', item= COC(=O)c1nc(Cl)nc(Cl)c1Cl )
1.88

Can you share its log10 TGI? I mean this molecule: Cc1ccc2c(c1)-c1c(C#N)c(N)nc(-c3ccc(Cl)cc3)c1CCS2(=O)=O
1.57

I have this molecule here, Cc1ccc(-c2csc(NC(=O)CN3CCN(c4cc5c(cc4F)c(=O)c(C(=O)O)cn5C4CC4)CC3)n2)cc1 , and I need its recorded log10 TGI.
1.26

log10 TGI for COc1cc2cc(C(=O)N3C[C@H](CCl)c4c3cc(N)c3ccccc43)[nH]c2c(OC)c1OC ?
0.52

Given the entry CCC[n+]1cc2cc(OC)c(OC)cc2c2c1-c1cc3c(cc1C2)OCO3 , report its measured log10 TGI.
0.80

log10 TGI for C[C@]12CCC(=O)[C@@H](CCC3=CC(=O)C=CC3=O)[C@@H]1CCC2=O ?
1.55

log10 TGI lookup needed for Cc1nc2sccn2c1-c1csc(Nc2cccc(Cl)c2C)n1 , thanks.
1.40

Entry under review: NC(=O)c1cc2c3ccccc3ccn2c1-c1ccccc1 . Reported log10 TGI?
-1.15

----------
- System: NCI-H522 lung
- measurement.description: NCI tumour cell line growth inhibition, 48 h
Assignment: determine reported TGI for the given compounds.
Write it as a number; the unit µM goes unstated.

// returns reported TGI for input COc1ccc2[nH]c(O)c(C(=Nc3ccc(N(C)C(=O)CN4CCN(C)CC4)cc3)c3ccccc3)c2c1
8.96

Quick check: TGI of O=C1NC(=S)S/C1=C(/C=C(\CC(=O)c1ccccc1)c1ccc(Cl)cc1)c1ccccc1 ?
44.9

I have this compound here, Cc1cc(C)c(C(=O)c2no[n+]([O-])c2C(=O)c2c(C)cc(C)c(Br)c2C)c(C)c1Br , and I need its recorded TGI.
23.4

----------
- System: A549 NSCLC
- measurement.description: NCI tumour cell line growth inhibition, 48 h; in the data active = GI50 below about 0.43 µM; inactive = the rest
Please answer using one outcome listed in true (1) (active), false (0) (inactive)

Test call, this compound: COc1ccc2cc(-c3c(-c4ccncc4)nc(-c4ccc(S(C)(=O)=O)cc4C)n3C)ccc2c1
false (0)

For Cc1nc2sccn2c1-c1csc(Nc2cccc(Cl)c2C)n1 , what call appears in the results of this test?
false (0)

Record request — test call for CCCOc1ccc2nc(NC(=O)OC)[nH]c2c1
true (1)

Record lookup: outcome of this test for Nc1ccccc1C#C/C=C\C#Cc1ccccc1[N+](=O)[O-] ?
false (0)

Assay result, entry Cc1cc(Cl)ccc1Nc1nc(C(F)(F)F)ccc1C(=O)N/N=C/c1ccc([N+](=O)[O-])cc1 — outcome?
false (0)
